System: NOMO1
Experiment: cell viability relative to DMSO control; higher = less cytotoxic
Conditions: RPMI 5 mM glucose + 10% dialyzed FBS; 48 h; 0.569 µM
PROPERTY MEASURED: cell viability

MOLECULE	TEST TARGET	OBS VALUE
CO/N=C(/C(=O)N[C@@H]1C(=O)N2C(C(=O)O)=C(Cn3ccc(=N)n3CCO)CS[C@H]12)c1csc(N)n1	NOMO1	130%
Clc1cccc(-c2nnnn2Cc2cccnc2)c1Cl	NOMO1	83.9%
ClC1=CC=C(CCCOC/2=N/NC(=O)C(=C2NCC3=CN=CC=C3)/Br)C=C1	NOMO1	106%
CC1(C)[C@@H](O[C@H]2O[C@H](C(=O)O)[C@@H](O)[C@H](O)[C@H]2O[C@@H]2O[C@H](C(=O)O)[C@@H](O)[C@H](O)[C@H]2O)CC[C@]2(C)[C@H]3C(=O)C=C4[C@@H]5C[C@@](C)(C(=O)O)CC[C@]5(C)CC[C@@]4(C)[C@]3(C)CC[C@@H]12	NOMO1	136%
CC(C)C[C@H](CN)CC(=O)O	NOMO1	99.3%
COc1cc2ncnc(-n3nc(-c4ccccn4)nc3N)c2cc1OC	NOMO1	98.5%
CO[C@H]1C[C@@H]2CC[C@@H](C)[C@@](O)(O2)C(=O)C(=O)N2CCCC[C@H]2C(=O)O[C@H]([C@H](C)C[C@@H]2CC[C@@H](OP(C)(C)=O)[C@H](OC)C2)CC(=O)[C@H](C)/C=C(\C)[C@@H](O)[C@@H](OC)C(=O)[C@H](C)C[C@H](C)/C=C/C=C/C=C/1C	NOMO1	120%
COc1nc(-c2ccc3c(c2)OCO3)n(-c2ccc(NC(=O)CSc3ccccc3)cc2)n1	NOMO1	103%
COc1cc2nccc(Oc3ccc(NC(=O)Nc4ccc(F)cc4F)c(F)c3)c2cc1OC	NOMO1	81.7%
O=C1NC(=O)[C@@H](c2cn3c4c(cccc24)CCC3)[C@@H]1c1c[nH]c2ccccc12	NOMO1	114%
COc1cc(N2CCC(C(N)=O)CC2)ccc1Nc1nc(N)c(Cl)c(Nc2ccccc2[S+](=O)([O-])C(C)C)n1	NOMO1	89.6%
COc1cc(N2CCC(O)CC2)ccc1Nc1cc(Nc2ccccc2[S+](=O)([O-])C(C)C)c2cc[nH]c2n1	NOMO1	63.4%
O=C(NC1CCNCC1)c1n[nH]cc1NC(=O)c1c(Cl)cccc1Cl	NOMO1	98.1%
CN(N=O)C(=O)N[C@H]1C(O)OC(CO)[C@@H](O)[C@@H]1O (stereo not given in full)	NOMO1	81.2%
CNC(=O)c1cccc(-c2ccc3c(N4CCOC[C@@H]4C)nc(N4CCOC[C@@H]4C)nc3n2)c1	NOMO1	62.5%

###

System: P12-Ichikawa
Assay: cell viability relative to DMSO control; higher = less cytotoxic
Details: RPMI 5 mM glucose + 10% dialyzed FBS; 48 h; 0.000781 µM
Please note: cell viability exactly at 90% is 0.0. Only values below 90% get 1.0.

> print(dat)
                               smiles.string  assigned.category
 1             Cl.c1cnc2cc3c(cc2n1)C1CNCC3C1                0.0
 2  COc1cc2c(N3CCN(C(=O)Nc4ccc(OC(C)C)cc4)CC3)ncnc2cc1OCCCN1CCCCC1                1.0
 3  CCC[C@@H]1C[C@@H](C(=O)N[C@@H]([C@H]2O[C@H](SC)[C@H](O)[C@@H](O)[C@H]2O)[C@@H](C)O)N(C)C1.Cl                0.0
 4  CC(C)(C)OC(=O)CN(Cc1ccc(Cl)cc1)Cc1ccc([N+](=O)[O-])s1                0.0
 5  C[C@H]1CN(C[C@@H](C)O1)CC(=O)NC2=CC=C3SC4=C(CC3=C2)C=CC=C4\C5=C\C(=O)\C=C(/O5)N6CCOCC6                0.0
 6  OC[C@H]1O[C@@H](Oc2ccc(O)cc2)[C@H](O)[C@@H](O)[C@@H]1O                1.0
 7  O=C(NC1CCNCC1)c1n[nH]cc1NC(=O)c1c(Cl)cccc1Cl                0.0
 8  C[C@H]([C@H](O)CCC(C)(C)O)[C@H]1CC[C@@]2(O)C/3=C/C(=O)[C@@H]4C[C@@H](O)[C@@H](O)C[C@]4(C)[C@H]3CC[C@]12C                0.0
 9  O=C1\C=C(/OC2=C1C=CC=C2C3=CC=CC=C3)N4CCOCC4                1.0
10  Cc1c[nH]c(/C=C2\C(=O)Nc3ccccc32)c1CCC(=O)O                0.0

###

Listing: cell viability of selected compounds
Tested on: SEM cells
Test: cell viability relative to DMSO control; higher = less cytotoxic
Conditions: RPMI 5 mM glucose + 10% dialyzed FBS; 48 h; 0.569 µM
PROPERTY MEASURED: cell viability

COMPOUND	TEST TARGET	OBS VALUE
CCC1=C[C@@H]2CN(C1)Cc1c([nH]c3ccccc13)[C@@](C(=O)OC)(c1cc3c(cc1OC)N(C)[C@H]1[C@@](O)(C(=O)OC)[C@H](OC(C)=O)[C@]4(CC)C=CCN5CC[C@]31[C@@H]54)C2	SEM cells	23.9%
CCCCN(CCCC)CCC(O)c1cc2c(Cl)cc(Cl)cc2c2cc(C(F)(F)F)ccc12 (stereo not drawn)	SEM cells	46.2%
CCC[C@@H]1C[C@@H](C(=O)N[C@@H]([C@H]2O[C@H](SC)[C@H](O)[C@@H](O)[C@H]2O)[C@@H](C)O)N(C)C1.Cl	SEM cells	132%

###

Test system: SEM cells
Assay: cell viability relative to DMSO control; higher = less cytotoxic
Conditions: HPLM + 10% dialyzed FBS; 48 h; 5.12 µM
Some molecules, each annotated with its measured cell viability.
PROPERTY MEASURED: cell viability

MOLECULE	PROPERTY MEASURED	OBS VALUE
O=[N+]([O-])c1cn2c(n1)OC[C@@H](OCc1ccc(OC(F)(F)F)cc1)C2	cell viability	86.7%
C[C@@H]1C[C@H]2[C@@H]3\C=C(C)/C4=C/C5=C(C[C@]4(C)[C@H]3[C@@H](O)C[C@]2(C)[C@@]1(O)C(=O)COC(C)=O)C=N[N]5C6=CC=CC=C6	cell viability	59.7%
COCCOC(=O)C/1=C(C)/NC/2=C(C1C3=CC=CC(=C3)O)/C(=O)CC(C2)C4=C(OC)C=CC=C4 (stereo not given)	cell viability	94.3%
COc1cc2ncnc(-n3nc(-c4ccccn4)nc3N)c2cc1OC	cell viability	35%
Nc1nc(-c2nn(Cc3ccccc3F)c3ncccc23)nc(N)c1N1CCOCC1	cell viability	104%
Cc1c(C(=O)Nc2ccc(N3C[C@@H](C)O[C@@H](C)C3)nc2)cccc1-c1ccc(OC(F)(F)F)cc1	cell viability	16.3%
CO[C@H]1C[C@@H]2CC[C@@H](C)[C@@](O)(O2)C(=O)C(=O)N2CCCC[C@H]2C(=O)O[C@H]([C@H](C)C[C@@H]2CC[C@@H](OP(C)(C)=O)[C@H](OC)C2)CC(=O)[C@H](C)/C=C(\C)[C@@H](O)[C@@H](OC)C(=O)[C@H](C)C[C@H](C)/C=C/C=C/C=C/1C	cell viability	75.4%
CCC(=O)O[C@@]1([C@@H](C)C[C@H]2[C@@H]3CCC/4=C/C(=O)/C=C\[C@]4(C)[C@@]3(F)[C@@H](O)C[C@]12C)C(=O)CCl	cell viability	61.8%
CN1[C@@H]2CCC[C@H]1C[C@@H](NC(=O)c1nn(C)c3ccccc13)C2.Cl	cell viability	133%
C[C@]\1(CCS\C(=N1)N)C2=CC(=C(F)C=C2F)C3=CN=CN=C3	cell viability	102%
C[C@H](NC(=O)C(=O)Nc1ccccc1C(C)(C)C)C(=O)N[C@@H](CC(=O)O)C(=O)COc1c(F)c(F)cc(F)c1F	cell viability	58.4%
O=C1c2c(O)cccc2[C@H]([C@@H]2O[C@H](CO)[C@@H](O)[C@H](O)[C@H]2O)c2cc(CO)cc(O)c21	cell viability	112%
COc1cc(N2CCC(O)CC2)ccc1Nc1cc(Nc2ccccc2[S+](=O)([O-])C(C)C)c2cc[nH]c2n1	cell viability	44%
CN(C)CCOC(c1ccccc1)c1ccccc1	cell viability	91.8%
Cn1c2ccccc2c2c3c(c4c5ccccc5n(CCC#N)c4c21)CNC3=O	cell viability	25.7%

###

Test system: SEM cells
Test: cell viability relative to DMSO control; higher = less cytotoxic
Settings: RPMI 5 mM glucose + 10% FBS; 48 h; 5.12 µM
PROPERTY MEASURED: cell viability (%)

> print(dat)
                              smiles.string  test.target  obs.value
1  O=C(O)[C@H](Cc1c[nH]c2ccccc12)N1C(=O)c2ccccc2C1=O    SEM cells         92
2  CC(=O)N1CCN(c2ccc(OCc3nn(C)c(C)c3-c3cccc4c(CCCOc5cc(C)c(Cl)c(C)c5)c(C(=O)O)n(Cc5cccnc5)c34)cc2)CC1    SEM cells       82.5
3  C=C(C)[C@@H]1CC[C@]2(C)CC[C@]3(C)[C@H](CC[C@@H]4[C@@]5(C)CC[C@H](O)C(C)(C)[C@@H]5CC[C@]43C)[C@@H]12    SEM cells        135
4  Cc1c[nH]c(/C=C2\C(=O)Nc3ccccc32)c1CCC(=O)O    SEM cells       27.6

meta.source: the supplement of paper PMC11451515
